tested on: mice; assay: In vivo delivery of FLuc-mRNA lipid nanoparticles in mice, in vivo imaging (IVIS); conditions: Fluc-mRNA LNP; route IV; organ: body; formulation, molar ratio and N/P as in the table
MEASURED METRIC: IVIS
One number for each entry.

Known results for compounds:
[
  {
    "COMPOUND": "CCCCCCCCN(C)C(=O)C(O)CN(CCCN(C)CCCN(CC(O)C(=O)N(C)CCCCCCCC)CC(O)C(=O)N(C)CCCCCCCC)CC(O)C(=O)N(C)CCCCCCCC (centres unmarked)",
    "TARGET ENTITY": "mice",
    "IVIS": "8.43E+06"
  },
  {
    "COMPOUND": "CCCCCCC(CCCCCC)C(=O)NCCNC(=O)C(O)CN(CCN(C)CCN(CC(O)C(=O)NCCNC(=O)C(CCCCCC)CCCCCC)CC(O)C(=O)NCCNC(=O)C(CCCCCC)CCCCCC)CC(O)C(=O)NCCNC(=O)C(CCCCCC)CCCCCC (centres unmarked)",
    "TARGET ENTITY": "mice",
    "IVIS": "7.98E+09"
  },
  {
    "COMPOUND": "CCCCCCCCC(CCCCCC)C(=O)OCCCCNC(=O)C(O)CN(CCCN(C)CCCN(CC(O)C(=O)NCCCCOC(=O)C(CCCCCC)CCCCCCCC)CC(O)C(=O)NCCCCOC(=O)C(CCCCCC)CCCCCCCC)CC(O)C(=O)NCCCCOC(=O)C(CCCCCC)CCCCCCCC (centres unmarked)",
    "TARGET ENTITY": "mice",
    "IVIS": "5.58E+07"
  },
  {
    "COMPOUND": "CCCCCCCCCCCCCCN(C)C(=O)C(O)CN(CCN(C)CCN(CC(O)C(=O)N(C)CCCCCCCCCCCCCC)CC(O)C(=O)N(C)CCCCCCCCCCCCCC)CC(O)C(=O)N(C)CCCCCCCCCCCCCC (centres unmarked)",
    "TARGET ENTITY": "mice",
    "IVIS": "2.19E+06"
  },
  {
    "COMPOUND": "CCCCCCCCCCCCCCN(C)C(=O)C(O)CN(CCCN(C)CCCN(CC(O)C(=O)N(C)CCCCCCCCCCCCCC)CC(O)C(=O)N(C)CCCCCCCCCCCCCC)CC(O)C(=O)N(C)CCCCCCCCCCCCCC (centres unmarked)",
    "TARGET ENTITY": "mice",
    "IVIS": "9.52E+06"
  },
  {
    "COMPOUND": "CCCCCCCCCCCCCCN(C)C(=O)C(O)CN(CCCN(CC(O)C(=O)N(C)CCCCCCCCCCCCCC)CC(O)C(=O)N(C)CCCCCCCCCCCCCC)CCCN(CC(O)C(=O)N(C)CCCCCCCCCCCCCC)CC(O)C(=O)N(C)CCCCCCCCCCCCCC (centres unmarked)",
    "TARGET ENTITY": "mice",
    "IVIS": "2.87E+07"
  },
  {
    "COMPOUND": "CCCCCCCCC(CCCCCC)C(=O)OCCCCNC(=O)C(O)CCN(CCCN(C)CCN(CC(O)C(=O)NCCCCOC(=O)C(CCCCCC)CCCCCCCC)CC(O)C(=O)NCCCCOC(=O)C(CCCCCC)CCCCCCCC)C(O)C(=O)NCCCCOC(=O)C(CCCCCC)CCCCCCCC (centres unmarked)",
    "TARGET ENTITY": "mice",
    "IVIS": "1.81E+08"
  }
]

Next item in the queue.
Task: API: value(readout=IVIS, system=mice) for record CCCCCCC(CCCCCC)C(=O)NCCNC(=O)C(O)CN(CCCN(CC(O)C(=O)NCCNC(=O)C(CCCCCC)CCCCCC)CC(O)C(=O)NCCNC(=O)C(CCCCCC)CCCCCC)CCCN(CC(O)C(=O)NCCNC(=O)C(CCCCCC)CCCCCC)CC(O)C(=O)NCCNC(=O)C(CCCCCC)CCCCCC (centres unmarked)
Output: 1.57E+08
